Assay: Inotodiol concentrations in blood and brain tissue (LC/MS)
Format: in vivo, Balb/c mice
Conditions: Balb/c, mouse, brain / blood (serum), oral; 4.5 mg/kg orally for 10 days, sampled day 11; read-out: inotodiol detected in the brain relative to blood
PROPERTY MEASURED: Kp at 11 day

Incoming: Input CC(C)=CC[C@@H](O)[C@@H](C)[C@H]1CC[C@@]2(C)C3=C(CC[C@]12C)[C@@]1(C)CC[C@H](O)C(C)(C)[C@@H]1CC3 , output reported Kp at 11 day.
Outgoing: ~12

* * *

Test: Inotodiol concentrations in blood and brain tissue (LC/MS)
Format: in vivo, Balb/c mice
Details: Balb/c, mouse, serum, oral, 4.5 mg/kg, 4.5 mg/kg orally for 10 days, sampled day 11; 4 mice; serum; read-out: Inotodiol concentration (ng/g) Blood, Average
PROPERTY MEASURED: concentration at 11 day

Incoming: Input CC(C)=CC[C@@H](O)[C@@H](C)[C@H]1CC[C@@]2(C)C3=C(CC[C@]12C)[C@@]1(C)CC[C@H](O)C(C)(C)[C@@H]1CC3 , output reported concentration at 11 day.
Outgoing: 12.1 ng/g

* * *

Experiment: Inotodiol concentrations in blood and brain tissue (LC/MS)
Format: in vivo, Balb/c mice
Details: Balb/c, mouse, brain, oral, 4.5 mg/kg, 4.5 mg/kg orally for 10 days, sampled day 11; read-out: Inotodiol concentration (ng/g) Brain, individual mice
PROPERTY MEASURED: concentration at 11 day (ng/g)
Respond numerically; units are ng/g and should not be typed.

Incoming: Input CC(C)=CC[C@@H](O)[C@@H](C)[C@H]1CC[C@@]2(C)C3=C(CC[C@]12C)[C@@]1(C)CC[C@H](O)C(C)(C)[C@@H]1CC3 , output reported concentration at 11 day.
Outgoing: 161
